- study.target: CDK2/Cyclin E1 complex (Homo sapiens)
- assay.remarks: CDK2 kinase inhibition assay (Caliper/LabChip EZ Reader)
- condition.info: CDK2/Cyclin E1 0.5 nM, ATP 2 mM, 35 min at 27° C.
- Procedure: Compounds of the invention were assayed for inhibition of CDK7, CDK9, CDK12, and CDK2 activity at Biortus Biosciences (Jiangyin, Jiangsu Province, P.R. of China) using kinase assays for each CDK developed with a Caliper/LabChip EZ Reader (Perkin Elmer, Waltham, Mass.). […]
The reader will find reported IC50 values listed item by item below.

Query string: Look up IC50 with CDK2/Cyclin E1 complex (Homo sapiens) for this compound: Cc1nn(C)cc1-c1ccc2c(-c3nc(N[C@H]4CCCNC4)ncc3C(F)(F)F)c[nH]c2c1 [Compound 226]
Result string: 0.2 to 5 µM

Query string: Same question, O=C(c1ccc2c(-c3nc(N[C@H]4CCCNC4)ncc3C(F)(F)F)c[nH]c2c1)N1CC[C@@H](O)C1 [Compound 205] this time
Result string: ≥ 5 µM

* * *

- study.target: CDK12 (aa686-1082)/Cyclin K complex (Homo sapiens, UniProt Q9NYV4)
- Construct: CDK12 (aa686-1082)/Cyclin K complex
- Sequence (Q9NYV4 686-1082): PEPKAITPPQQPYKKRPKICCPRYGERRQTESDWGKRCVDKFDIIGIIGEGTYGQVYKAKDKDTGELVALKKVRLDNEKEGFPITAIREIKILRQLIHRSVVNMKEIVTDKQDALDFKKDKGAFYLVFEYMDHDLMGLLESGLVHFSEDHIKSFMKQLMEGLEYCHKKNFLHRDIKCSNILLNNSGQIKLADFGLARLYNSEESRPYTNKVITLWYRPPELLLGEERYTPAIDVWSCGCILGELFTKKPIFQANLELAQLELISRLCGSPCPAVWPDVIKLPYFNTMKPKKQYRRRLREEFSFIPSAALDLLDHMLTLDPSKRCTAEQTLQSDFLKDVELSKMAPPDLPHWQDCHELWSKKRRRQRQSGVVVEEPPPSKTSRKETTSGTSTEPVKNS
- Sequence (O75909 whole entry partner, the tested form may be a part): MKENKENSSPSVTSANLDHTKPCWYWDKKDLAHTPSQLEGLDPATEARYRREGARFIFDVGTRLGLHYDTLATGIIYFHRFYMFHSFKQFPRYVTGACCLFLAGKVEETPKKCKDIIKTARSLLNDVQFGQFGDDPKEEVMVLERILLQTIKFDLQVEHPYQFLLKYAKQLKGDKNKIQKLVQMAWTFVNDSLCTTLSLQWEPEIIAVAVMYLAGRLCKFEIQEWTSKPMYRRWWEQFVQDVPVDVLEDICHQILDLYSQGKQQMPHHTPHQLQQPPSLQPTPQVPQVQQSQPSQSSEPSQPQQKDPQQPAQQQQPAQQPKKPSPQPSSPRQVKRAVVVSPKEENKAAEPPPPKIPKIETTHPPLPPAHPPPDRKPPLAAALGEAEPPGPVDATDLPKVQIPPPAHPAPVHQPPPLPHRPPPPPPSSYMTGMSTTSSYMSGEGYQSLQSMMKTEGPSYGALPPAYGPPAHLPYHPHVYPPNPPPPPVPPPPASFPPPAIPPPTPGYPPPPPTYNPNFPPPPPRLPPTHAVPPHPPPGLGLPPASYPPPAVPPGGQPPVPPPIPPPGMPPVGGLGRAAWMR
- assay.remarks: CDK12 kinase inhibition assay (Caliper/LabChip EZ Reader)
- condition.info: CDK12 (aa686-1082)/Cyclin K 50 nM, ATP 2 mM, 3 hr at 27° C.
measure.name: IC50

> print(dat)
                                   molecule                              study.target  measure.name  experimental.result
1  Clc1cnc(NC2CCCNC2)nc1-c1c[nH]c2ncccc12 (centres unmarked) [Compound 118]  CDK12 (aa686-1082)/Cyclin K complex (Homo sapiens, UniProt Q9NYV4)          IC50         20 to 200 nM

Query string: Request the reported IC50 associated with CC(C)(O)CCc1cccc2c(-c3nc(NC4CCCNC4)ncc3C(F)(F)F)c[nH]c12 (centres unmarked) [Compound 191]
Result string: 200 to 5000 nM

Query string: Try the molecule CC1(C)CCC(Nc2ncc(C(F)(F)F)c(-c3c[nH]c4ccccc34)n2)CN1 (centres unmarked) [Compound 190]
Result string: 200 to 5000 nM

Query string: What about COCn1cc(-c2nc(NC3CCCNC3)ncc2C(F)(F)F)c2ccc(C#N)nc21 (centres unmarked) [Compound 283] ?
Result string: ≥ 5000 nM

* * *

- study.target: CDK2/Cyclin E1 complex (Homo sapiens)
- assay.remarks: CDK2 kinase inhibition assay (Caliper/LabChip EZ Reader)
- condition.info: CDK2/Cyclin E1 0.5 nM, ATP 2 mM, 35 min at 27° C.
- Method: Compounds of the invention were assayed for inhibition of CDK7, CDK9, CDK12, and CDK2 activity at Biortus Biosciences (Jiangyin, Jiangsu Province, P.R. of China) using kinase assays for each CDK developed with a Caliper/LabChip EZ Reader (Perkin Elmer, Waltham, Mass.). […]
Measured IC50 accompanies every entry in the list below.

The examples below pair each entry with its known result.
> print(dat)
                                   molecule  measure.name  experimental.result
1  FC(F)(F)c1cnc(N[C@H]2CCCNC2)nc1-c1c[nH]c2cc(-c3nccs3)ccc12          IC50          0.2 to 5 µM
2  OC1CCNCC1Nc1ncc(Cl)c(-c2c[nH]c3ccccc23)n1 (stereo not drawn)          IC50               ≥ 5 µM
3  O=C1CCC(Nc2ncc(Cl)c(-c3c[nH]c4ccccc34)n2)CN1 (stereo not drawn)          IC50       0.02 to 0.2 µM

Query string: Consider the molecule Clc1cnc(NC2CNCCC2c2ccccc2)nc1-c1c[nH]c2ccccc12 (stereo not drawn) and give its measured IC50.
Result string: ≥ 5 µM

Query string: Here is the next molecule: CCc1cnc(NC2CCCNC2)nc1-c1n[nH]c2ccc(C)cc12 (stereo not drawn)
Result string: ≥ 5 µM

Query string: Then FC(F)(F)c1cnc(NC2CCCNC2)nc1-c1c[nH]c2cc(-c3cccnc3)ccc12 (stereo not drawn) ?
Result string: 0.2 to 5 µM

* * *

- study.target: CDK2/Cyclin E1 complex (Homo sapiens)
- assay.remarks: CDK2 kinase inhibition assay (Caliper/LabChip EZ Reader)
- condition.info: CDK2/Cyclin E1 0.5 nM, ATP 2 mM, 35 min at 27° C.
Listed here are molecules together with their documented IC50.

Use the examples below as a reference point.
> print(dat)
                                   molecule  experimental.result
1  FC(F)n1ccc(-c2ccc3c(-c4nc(NC5CCCNC5)ncc4C(F)(F)F)c[nH]c3c2)n1 (centres unmarked) [Compound 289]          0.2 to 5 µM
2  FC(F)(F)c1cnc(NC2CNCc3ccccc32)nc1-c1c[nH]c2ccccc12 (centres unmarked) [Compound 216]          0.2 to 5 µM
3  CCc1cnc(NC2CCCNC2)nc1-c1c[nH]c2c(F)cccc12 (centres unmarked) [Compound 144]          0.2 to 5 µM
4  CCc1cnc(NC2CCCNC2)nc1-c1c[nH]c2ccccc12 (centres unmarked) [Compound 105]               ≥ 5 µM

Query string: Bench note: what IC50 did CC1CNCC(Nc2ncc(Cl)c(-c3c[nH]c4ccccc34)n2)C1 (centres unmarked) [Compound 201] show?
Result string: 0.2 to 5 µM

Query string: Here is the next molecule: CC(C)(C)OC(=O)N1CCC[C@H](Nc2ncc(C(F)(F)F)c(-c3c[nH]c4cc(P(C)(C)=O)ccc34)n2)C1 [Compound 352]
Result string: ≥ 5 µM

Query string: Another: CCc1cnc(NC2CCCNC2)nc1-c1c[nH]c2ncc(F)cc12 (centres unmarked) [Compound 231]
Result string: ≥ 5 µM

Query string: What do you have for FC(F)(F)c1cnc(N[C@H]2CCCNC2)nc1-c1c[nH]c2cc(-n3ccnc3)ccc12 [Compound 248] ?
Result string: 0.2 to 5 µM

Query string: Next record, please: CCN1CC(Nc2ncc(C(F)(F)F)c(-c3c[nH]c4cc(S(C)(=O)=O)ccc34)n2)CC(C)(C)C1 (centres unmarked) [Compound 369]
Result string: ≥ 5 µM

Query string: Continue with CCc1cnc(N[C@H]2CCCNC2)nc1-c1c[nH]c2c(C)cccc12 [Compound 137]
Result string: 0.2 to 5 µM

Query string: What do we get for COC1CCN(C(=O)c2ccc3c(-c4nc(NC5CCCNC5)ncc4C(F)(F)F)c[nH]c3c2)C1 (centres unmarked) [Compound 280] ?
Result string: ≥ 5 µM

Query string: Please answer likewise for Fc1cccc(-c2ccc3c(-c4nc(NC5CCCNC5)ncc4C(F)(F)F)c[nH]c3c2)c1 (centres unmarked) [Compound 345]
Result string: ≥ 5 µM

Query string: // repeat for Clc1cnc(NC2CCCNC2)nc1-c1c[nH]c2ccc(N3CCOCC3)cc12 (centres unmarked) [Compound 151] and report
Result string: ≥ 5 µM

Query string: Also, CCc1cnc(NC2CCCNC2)nc1-c1n[nH]c2cc(C#N)ccc12 (centres unmarked) [Compound 275] please.
Result string: 0.2 to 5 µM

Query string: Now the same for FC(F)(F)c1cnc(NC2CCCNC2)nc1-c1c[nH]c2cnc(Cl)cc12 (centres unmarked) [Compound 165]
Result string: 0.2 to 5 µM

Query string: Can you handle N#Cc1ccc2c(-c3nc(NC4CNCC(F)C4)ncc3C(F)(F)F)c[nH]c2c1 (centres unmarked) [Compound 368] next?
Result string: ≥ 5 µM

Query string: # iterate: Clc1cnc(NC2CCCNC2)nc1-c1c[nH]c2ncccc12 (centres unmarked) [Compound 118]
Result string: 0.2 to 5 µM

* * *

- study.target: CDK2/Cyclin E1 complex (Homo sapiens)
- assay.remarks: CDK2 kinase inhibition assay (Caliper/LabChip EZ Reader)
- condition.info: CDK2/Cyclin E1 0.5 nM, ATP 2 mM, 35 min at 27° C.
measure.name: IC50

Recorded results for 3 molecules are shown here.
> print(dat)
                                   molecule  measure.name  experimental.result
1  CC(C)c1cnc(N[C@H]2CCCNC2)nc1-c1n[nH]c2nc(C#N)ccc12          IC50               ≥ 5 µM
2  CC(=O)c1ccc2c(-c3nc(N[C@H]4CCCNC4)ncc3C(F)(F)F)c[nH]c2c1          IC50          0.2 to 5 µM
3  Clc1cnc(N[C@H]2CN3CCC2CC3)nc1-c1c[nH]c2ccccc12          IC50               ≥ 5 µM

Read the next record carefully.
Query string: Entry under review: CS(=O)(=O)c1cccc2c(-c3nc(NC4CCCNC4)ncc3C(F)(F)F)c[nH]c12 (stereo not shown) . Reported IC50?
Result string: 0.2 to 5 µM
